experimental.details: qHTS of pediatric cancer cell lines to identify multiple opportunities for drug repurposing: Primary screen for A673 cells (AID 1347092); note: nearly all actives have a fitted effect of over 45% in size
test.parameters: A673 Ewing sarcoma viability, CellTiter-Glo ATP luminescence, 48 h; series mostly up to 46 µM
Records with an inconclusive call do not appear. The source made the active and inactive calls. Calls come from the whole dose curve; as a rule, active = well fitted cell-killing curve with a large enough effect; inconclusive = small, poorly fitted or top-dose-only effect; inactive = no such curve, though single readings can be large or run the other way.
Classes used: class 1 = active, class 0 = inactive

compound: COc1cccc2c1[C@]13CCN(CC4CC4)[C@H](C2)[C@]1(OC)CCC(=O)C3
answer.label: class 0

compound: COc1cc([C@@H]2c3cc4c(cc3[C@@H](O)C3COC(=O)C32)OCO4)cc(OC)c1O (stereo partly specified)
answer.label: class 1

compound: C[C@@H]1O[C@@H](O[C@@H]2C=C3CC[C@@H]4[C@@H](CC[C@]5(C)[C@H](c6ccc(=O)oc6)CC[C@@]45O)[C@@]3(C)CC2)[C@H](O)[C@H](O)[C@H]1O
answer.label: class 1

compound: c1cc2c(cc1[C@H]1OC[C@H]3[C@H]1CO[C@H]3c1ccc3c(c1)OCO3)OCO2
answer.label: class 0

compound: CCOC(=O)c1c(C(C#N)=CN)c2ccc(Cl)c(Cl)c2n1C
answer.label: class 0

compound: CC(C)(C)[C@]1(O)C[C@@H]2OC(=O)C[C@@]23C(=O)O[C@@H]2OC(=O)[C@H](O)C213 (stereo partly specified)
answer.label: class 0

compound: COc1ccc2c(c[n+](C)c3c4cc5c(cc4ccc23)OCO5)c1OC
answer.label: class 1

compound: CN1[C@H]2CC(O)C[C@H]1[C@H]1O[C@H]12 (stereo partly specified)
answer.label: class 1

compound: CC(=O)Nc1ccc(OC[C@](C)(O)C(=O)Nc2ccc([N+](=O)[O-])c(C(F)(F)F)c2)cc1
answer.label: class 0

compound: Nc1ccc(Cl)cc1
answer.label: class 0

compound: O=C(Oc1ccc([N+](=O)[O-])cc1)N1CCN(Cc2cccc(Oc3ccccc3)c2)CC1
answer.label: class 1

---

experimental.details: qHTS of pediatric cancer cell lines to identify multiple opportunities for drug repurposing: Primary screen for SK-N-MC cells (AID 1347093)
test.parameters: SK-N-MC viability, CellTiter-Glo luminescence, 48 h; series mostly up to 46 µM
Records with an inconclusive call do not appear. Activity calls are given as the source filed them. Calls follow the shape of the dose curve; as a rule, active = well fitted cell-killing curve with a large enough effect; inconclusive = small, poorly fitted or top-dose-only effect; inactive = no such curve, though single readings can be large or run the other way.
Classes used: True for active, False for inactive

molecule: COCC1(CO)C(=O)C2CCN1CC2 (configuration not stated)
answer.label: True

molecule: O=c1[nH]c2ccc(Cl)cc2c(N[C@@H]2CN3CCC2CC3)c1-c1nc2ccccc2[nH]1
answer.label: True

molecule: ClC1=C(Cl)[C@]2(Cl)[C@@H]3[C@@H]4C[C@@H]([C@H]5O[C@@H]45)[C@@H]3[C@@]1(Cl)C2(Cl)Cl
answer.label: True

molecule: N=c1c2c(-c3ccccc3)c(-c3ccccc3)n(Cc3ccccc3)c2ncn1C1CCC(O)CC1 (configuration not stated)
answer.label: True

molecule: CC(=O)O[C@@]12CO[C@H]1C[C@H](O)[C@@]1(C)C(=O)[C@H](O)C3=C(C)[C@@H](O)C[C@@](O)([C@@H](OC(=O)c4ccccc4)[C@@H]21)C3(C)C
answer.label: True

molecule: COc1cccc2c1[C@]13CCN(CC4CC4)[C@H](C2)[C@]1(OC)CCC(=O)C3
answer.label: False

molecule: COC[C@H]1OC(=O)c2coc3c2[C@@]1(C)C1=C(C3=O)[C@@H]2CC[C@H](O)[C@@]2(C)C[C@@H]1OC(C)=O
answer.label: True

molecule: Oc1ccc2c3c1O[C@H]1c4[nH]c5c(c4C[C@@]4(O)[C@@H](C2)N(CC2CC2)CC[C@]314)C[C@@]1(O)[C@H]2Cc3ccc(O)c4c3[C@@]1(CCN2CC1CC1)[C@H]5O4
answer.label: False

molecule: COCCOCCO
answer.label: False

molecule: CC[C@@]1(O)C(=O)OCc2c1cc1n(c2=O)Cc2cc3ccccc3nc2-1
answer.label: True

molecule: CN(C)NC(=O)CCC(=O)O
answer.label: False

molecule: CCC(=O)OC1CCC2C3CCC4=CC(=O)CC[C@@]4(C)C3CC[C@]12C (some centres not stated)
answer.label: True

molecule: S=C(SSC(=S)N1CCCCC1)N1CCCCC1
answer.label: True

molecule: CCCCC(CC)COC(=O)c1ccccc1C(=O)OCC(CC)CCCC (configuration not stated)
answer.label: False

molecule: O=C(NCC1CCOCC1)c1cnc(Nc2ccc(Cl)cc2Cl)nc1C(F)(F)F
answer.label: True

molecule: Cc1c(C(=O)Nc2cccc(C(F)(F)F)c2)cc(-c2ccccc2)n1CCCN1CCOCC1
answer.label: True

molecule: CCCC[N+]1(C)[C@H]2CC(OC(=O)[C@H](CO)c3ccccc3)C[C@H]1[C@H]1O[C@H]12 (some centres not stated)
answer.label: False

molecule: CC(C)N(CCNC(=O)CN1CCCC1=O)C(C)C
answer.label: False

molecule: CC(C)[C@]12O[C@@H]1[C@@H]1O[C@]13[C@]1(O[C@H]1C[C@@H]1C4=C(CC[C@@]13C)C(=O)OC4)[C@H]2O
answer.label: True

molecule: CCOP(=O)(OCC)C(C)NC(=O)N(CCCl)N=O (configuration not stated)
answer.label: False

molecule: C[C@H]1CCCC=CC2C[C@H](O)C[C@@H]2[C@H](O)C=CC(=O)O1 (some centres not stated)
answer.label: True

molecule: CCNC(=O)C[C@@H]1N=C(c2ccc(Cl)cc2)c2cc(OC)ccc2-n2c(C)nnc21
answer.label: True

molecule: COc1ccc(C(c2ccc(OC)cc2)C(Cl)(Cl)Cl)cc1
answer.label: True

molecule: Nc1ccc(Cl)cc1N
answer.label: False

molecule: CCOC(=O)c1cncn1[C@H](C)c1ccccc1
answer.label: False

molecule: CC(=O)N(C)c1cccc(-c2ccnc3c(C(=O)c4cccs4)cnn23)c1
answer.label: False

molecule: CCN1CCN(C(=O)Cc2ccc(Nc3ncc(F)c(Nc4ccc(C(=O)Nc5ccccc5Cl)cc4)n3)cc2)CC1
answer.label: True

molecule: CC(C)(O)C(=O)Nc1ccc([N+](=O)[O-])c(C(F)(F)F)c1
answer.label: True

molecule: COc1ccc2c(c1)CN(C)CC2c1ccc(Cl)c(Cl)c1 (configuration not stated)
answer.label: True

molecule: C[C@H]([C@H](O)CCC(C)(C)O)[C@H]1CC[C@@]2(O)C3=CC(=O)[C@@H]4C[C@@H](O)[C@@H](O)C[C@]4(C)[C@@H]3CC[C@]12C
answer.label: False

molecule: CN1CCN(c2ccc([N+](=O)[O-])c3no[n+]([O-])c23)CC1
answer.label: True

molecule: O=C(O)c1cc(Oc2ccc(C(F)(F)F)cc2Cl)ccc1[N+](=O)[O-]
answer.label: False

molecule: C[C@@H]1[C@H](O)[C@@H](C)C=CC=CCCC=CC=CC=CC=C[C@H](O[C@H]2O[C@@H](C)[C@H](O)[C@@H](N)[C@@H]2O)CC2O[C@](O)(C[C@@H](O)[C@H](O)CC[C@@H](O)C[C@@H](O)C[C@@H](O)CC(=O)O[C@H]1C)C[C@H](O)[C@H]2C(=O)O
answer.label: False

molecule: CC(C)(C)C(O)C(Oc1ccc(Cl)cc1)n1cncn1 (configuration not stated)
answer.label: True

molecule: C=CC(=O)NCNC(=O)C=C
answer.label: False

molecule: O=C(Oc1ccc([N+](=O)[O-])cc1)N1CCN(Cc2cccc(Oc3ccccc3)c2)CC1
answer.label: True

molecule: Clc1ccccc1C(c1ccccc1)(c1ccccc1)n1cccn1
answer.label: False

---

experimental.details: Primary qHTS for inhibitors of nuclear receptor binding SET domain protein 2 (NSD2) in an RCH-ACV wild type WT cells (2C) (AID 1645877); note: nearly all actives have a fitted effect of over 70% in size
test.parameters: RCH-ACV (leukaemia line) NSD2 WT (2C) viability, CellTiter-Glo, 72 h; series mostly up to 44.9 µM
Inconclusive results are not listed. Calls of active or inactive are those of the source. Calls come from the whole dose curve; as a rule, active = well fitted inhibition curve with a large enough effect; inconclusive = small, poorly fitted or top-dose-only effect; inactive = no such curve, though single readings can be large or run the other way.
Classes used: TRUE for active, FALSE for inactive

compound: COc1ccc(C(=O)c2c(C)n(CCN3CCOCC3)c3cc(I)ccc23)cc1
answer.label: TRUE

compound: O=S(=O)(O)C(F)(F)C(F)(F)C(F)(F)C(F)(F)F
answer.label: FALSE

compound: CN(C)[C@@H]1C(=O)C(C(N)=O)=C(O)[C@@]2(O)C(=O)C3=C(O)c4c(O)cccc4[C@@](C)(O)[C@H]3[C@H](O)[C@@H]12
answer.label: FALSE

compound: CCCC[N+]1(C)[C@H]2CC(OC(=O)[C@H](CO)c3ccccc3)C[C@H]1[C@H]1O[C@H]12 (stereo not given in full)
answer.label: FALSE

compound: C[C@](O)(COc1ccc(C#N)cc1)C(=O)Nc1ccc(C#N)c(C(F)(F)F)c1
answer.label: TRUE

---

Test system: Tov-21-G
experimental.details: Primary qHTS to identify gynecologic anti-cancer compounds using libraries of approved drugs and bioactive compounds (AID 1345084); note: nearly all actives have a fitted effect of over 55% in size
test.parameters: Gynecologic cancer cell panel viability, ATPlite luminescence, 48 h; series mostly up to 57.5 µM
Inconclusive results are not listed. Activity calls are given as the source filed them. Calls follow the shape of the dose curve; as a rule, active = well fitted cell-killing curve with a large enough effect; inconclusive = small, poorly fitted or top-dose-only effect, or effect the other way; inactive = flat fitted curve, though single readings scatter.
Classes used: label 1 = active, label 0 = inactive

molecule: O=[N+]([O-])/N=C1\NCCN1Cc1ccc(Cl)nc1
tested.on: Tov-21-G
answer.label: label 0

molecule: COC1=C[C@@H]2[C@@H]3Cc4ccc(OC)c(O)c4[C@]2(CCN3C)CC1=O
tested.on: Tov-21-G
answer.label: label 0

molecule: CCN(CC)C(=O)c1ccc(C2=CC3(CCNCC3)Oc3cccc(O)c32)cc1
tested.on: Tov-21-G
answer.label: label 0

molecule: O=C(O)C(Cl)Cl
tested.on: Tov-21-G
answer.label: label 0

molecule: S=C(NC1CCCCC1)N1CCC(c2cnc[nH]2)CC1
tested.on: Tov-21-G
answer.label: label 0

molecule: CCCCC(CC)COC(=O)c1ccccc1C(=O)OCC(CC)CCCC (centres undefined)
tested.on: Tov-21-G
answer.label: label 0

molecule: CCNC(=O)CC1N=C(c2ccc(Cl)cc2)c2cc(OC)ccc2-n2c(C)nnc21 (centres undefined)
tested.on: Tov-21-G
answer.label: label 0

molecule: CC1(C)CC/C(=C/c2ccc(Cl)cc2)C1(O)Cn1cncn1 (centres undefined)
tested.on: Tov-21-G
answer.label: label 0

molecule: Cc1[nH]nc2ccc(-c3cncc(OC[C@@H](N)Cc4c[nH]c5ccccc45)c3)cc12
tested.on: Tov-21-G
answer.label: label 1
